# Tested on: Escherichia coli TOP10;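 note: peptides expressed intracellularly from a pBAD plasmid library in pooled LB shake-flask culture, induced with 0.3% L-arabinose, DNA abundance read by NGS, three biological replicates, DESeq2 with apeglm shrinkage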
# test: shrunken log2 fold change of peptide-encoding DNA abundance (4.5 h post-induction vs induction); higher = less antimicrobial activity (less host growth inhibition)
# settings: time post-induction: 4.5 h; library: site-saturation at positions 5, 18, 19, 20
// map shrunken log2 fold change onto a label; ranges low end (below -0.1), middle (-0.1 to below 0.1), high end (0.1 or more)

Would you please look over these solved cases?
{"seq.string": "RRIRLRPPRLPRPRPRPHYIPRP", "class.assignment": "low end"}
{"seq.string": "RRIRWRPPRLPRPRPRPQALPRP", "class.assignment": "high end"}

Could you now consider this next sequence?
Prompt: Kindly identify the class of `RRIRWRPPRLPRPRPRPCLAPRP` .
Response: high end
